Test: Apparent permeability of the compound by PAMPA
Format: physicochemical
endpoint: Papp

In: What value of Papp has been recorded for this entry: COCCOCn1ccc(NC(=O)c2cc(Oc3ccc(S(C)(=O)=O)cc3)cc(-c3ncccc3C)c2)n1
Out: 2.62 ×10⁻⁶ cm/s

---

Experiment: Cmax in ICR mouse at 3 mg/kg, iv and 10 mg/kg, po
Format: ADME, organism-based
Details: in vivo
endpoint: Cmax (ng/mL)
Express it in ng/mL; write the number only.

In: What value of Cmax has been recorded for this entry: COCCOCn1ccc(NC(=O)c2cc(Oc3ccc(S(C)(=O)=O)cc3)cc(-c3ncccc3C)c2)n1
Out: 11700

---

Test: Cmax in female Sprague-Dawley rat at 500 mg/kg, po measured on day 1
Type: ADME, organism-based
Parameters: dose 500 mg/kg, route oral
Conditions: in vivo
endpoint: Cmax (ng/mL)
Express it in ng/mL; write the number only.

In: What value of Cmax has been recorded for this entry: COCCOCn1ccc(NC(=O)c2cc(Oc3ccc(S(C)(=O)=O)cc3)cc(-c3ncccc3C)c2)n1
Out: 4300

---

Below, each of the compounds is paired with its reported pEC50 value.
Target: UniProtKB P35557
Sequence (P35557 whole entry): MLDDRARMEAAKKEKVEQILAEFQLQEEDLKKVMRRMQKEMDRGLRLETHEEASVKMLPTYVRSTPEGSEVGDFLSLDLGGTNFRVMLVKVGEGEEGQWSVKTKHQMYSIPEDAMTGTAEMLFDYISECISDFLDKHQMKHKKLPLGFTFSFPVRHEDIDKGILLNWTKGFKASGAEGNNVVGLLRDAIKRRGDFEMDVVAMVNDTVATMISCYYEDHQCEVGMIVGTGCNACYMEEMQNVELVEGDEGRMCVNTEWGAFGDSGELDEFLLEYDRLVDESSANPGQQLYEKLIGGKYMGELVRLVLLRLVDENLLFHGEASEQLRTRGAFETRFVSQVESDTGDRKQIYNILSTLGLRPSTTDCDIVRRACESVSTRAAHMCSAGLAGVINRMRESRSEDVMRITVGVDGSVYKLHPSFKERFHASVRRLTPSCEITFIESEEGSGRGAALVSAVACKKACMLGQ
Experiment: Activation of recombinant human pancreatic glucokinase using 10 mM glucose by spectrophotometry
In textbook form, pEC50 equals minus log to base ten of the concentration in mol/L.

Solved cases below.
> print(dat)
                                   compound  recorded.value
1  COCC(C)NCc1csc(NC(=O)c2cc(Oc3ccc(S(C)(=O)=O)cc3)cc(-c3ncccc3C)c2)n1 (stereo not drawn)            8.10
2  Cc1cccnc1-c1cc(Oc2ccc(S(C)(=O)=O)cc2)cc(C(=O)Nc2nc(CN3CCN(C)CC3)cs2)c1            6.16
3  Cc1cccnc1-c1cc(Oc2ccc(S(C)(=O)=O)cc2)cc(C(=O)Nc2nc(CC(=O)NC3CC3)cs2)c1            6.99

In: What value of pEC50 has been recorded for this entry: COC(CNCc1csc(NC(=O)c2cc(Oc3ccc(S(C)(=O)=O)cc3)cc(-c3ncccc3C)c2)n1)OC
Out: 7.48

---

Assay: Volume of distribution at steady state in ICR mouse at 3 mg/kg, iv and 10 mg/kg, po
Format: ADME, organism-based
Conditions: in vivo, read-out: Vdss
endpoint: Vd (L/kg)
Express it in L/kg; write the number only.

In: What value of Vd has been recorded for this entry: COCCOCn1ccc(NC(=O)c2cc(Oc3ccc(S(C)(=O)=O)cc3)cc(-c3ncccc3C)c2)n1
Out: 0.18

---

Assay: Tmax in male Sprague-Dawley rat at 500 mg/kg, po measured on day 14
Assay type: ADME, organism-based
Parameters: dose 500 mg/kg, route oral
Conditions: in vivo
endpoint: Tmax (h)
Express it in h; write the number only.

In: What value of Tmax has been recorded for this entry: COCCOCn1ccc(NC(=O)c2cc(Oc3ccc(S(C)(=O)=O)cc3)cc(-c3ncccc3C)c2)n1
Out: 3

---

Assay: Cmax in male Sprague-Dawley rat at 250 mg/kg, po measured on day 14
Type: ADME, organism-based
Design: dose 250 mg/kg, route oral
Details: in vivo
endpoint: Cmax (ng/mL)
Express it in ng/mL; write the number only.

In: What value of Cmax has been recorded for this entry: COCCOCn1ccc(NC(=O)c2cc(Oc3ccc(S(C)(=O)=O)cc3)cc(-c3ncccc3C)c2)n1
Out: 1820
